Listed here: items and their measured IC50 (Relative to Chimera).
biological target: T1, human tau (human, UniProt P10636 2-60); test: competition ELISA on plate-coated human tau against biotinylated HJ8.5; IC50 normalised to chimeric HJ8.5; column C2N Run 1
T1 construct: also called soluble human tau; human tau protein
T1 sequence (P10636 2-60 limits assumed): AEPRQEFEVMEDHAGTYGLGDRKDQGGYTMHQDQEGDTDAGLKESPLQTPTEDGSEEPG

binder: VH3/VK1 (antibody, human IgG4 S228P, kappa, V domains shown, humanized HJ8.5 variant, combination of VH3 and VK1) VH: EVQVVESGGGLVQPGGSLKLSCVVSGFTFSNYWVNWVRQAPGKGLEWVAQIRLKSDNYATHYEESVKGRFTISRDDSKNSVYLQMNSLRAEDTAIYYCTNWEDYWGQGTTVTVSS VL: DIVLTQSPDSLAVSLGERATISCRASQSVSTSRYSYIHWYQQKPGQPPKLLIKYASNLESGVPSRFSGSGSGTDFTLNIHPLEEEDFATYYCHHSWEIPLTFGQGTKLEIKR
IC50 (Relative to Chimera): 1.16 relative to Chimera

binder: VH2/VK1 (antibody, human IgG4 S228P, kappa, V domains shown, humanized HJ8.5 variant, combination of VH2 and VK1) VH: EVKVVESGGGLVQPGGSLKLSCVVSGFTFSNYWVNWVRQAPGKGLEWVAQIRLKSDNYATHYEESVKGRFTISRDDSKSSVYLQMNSLRAEDTGIYYCTNWEDYWGQGTTVTVSS VL: DIVLTQSPDSLAVSLGERATISCRASQSVSTSRYSYIHWYQQKPGQPPKLLIKYASNLESGVPSRFSGSGSGTDFTLNIHPLEEEDFATYYCHHSWEIPLTFGQGTKLEIKR
IC50 (Relative to Chimera): 1.43 relative to Chimera

Next binder, please.
Indicate its recorded IC50 (Relative to Chimera); the binder in question is VH1/VK2 humanized anti-tau antibody (C2N-8E12) (antibody, human IgG4 S228P, kappa, V domains shown, Humanized recombinant IgG4 with S241P hinge mutation, human kappa light chain; also called C2N-8EI2) VH: EVKVVESGGGLVQPGGSMKLSCVVSGFTFSNYWVNWVRQAPGKGLEWVAQIRLKSDNYATHYEESVKGRFTISRDDSKSSVYLQMNNLRAEDSGIYYCTNWEDYWGQGTTVTVSS VL: DIVLTQSPDSLAVSLGERATISCRASQSVSTSRYSYIHWYQQKPGQPPKLLIKYASNLESGVPSRFSGSGSGTDFTLNIHPLEPEDFATYYCHHSWEIPLTFGQGTKLEIKR
1.34 relative to Chimera
